# System name: T1, rat PRLR on Nb2-11 rat lymphoma cells (rat, UniProt P05710 20-610)
# T1 construct: whole, on cells
# T1 sequence (looked up): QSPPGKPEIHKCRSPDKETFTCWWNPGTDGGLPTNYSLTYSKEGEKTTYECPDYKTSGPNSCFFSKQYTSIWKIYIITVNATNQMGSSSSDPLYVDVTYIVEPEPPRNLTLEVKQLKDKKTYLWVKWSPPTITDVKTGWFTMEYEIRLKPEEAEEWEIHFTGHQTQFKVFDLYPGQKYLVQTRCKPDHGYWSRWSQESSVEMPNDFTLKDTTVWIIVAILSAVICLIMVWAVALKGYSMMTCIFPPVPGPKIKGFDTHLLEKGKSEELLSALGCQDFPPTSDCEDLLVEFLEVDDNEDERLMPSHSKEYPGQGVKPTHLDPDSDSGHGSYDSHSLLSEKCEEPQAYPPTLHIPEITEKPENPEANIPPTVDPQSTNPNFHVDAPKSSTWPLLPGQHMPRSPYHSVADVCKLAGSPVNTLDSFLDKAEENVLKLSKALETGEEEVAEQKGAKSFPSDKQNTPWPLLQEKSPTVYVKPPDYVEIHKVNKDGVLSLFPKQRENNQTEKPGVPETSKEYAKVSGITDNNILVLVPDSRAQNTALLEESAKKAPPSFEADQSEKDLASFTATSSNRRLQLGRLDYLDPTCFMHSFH
# Test method notes: FACS Nb2-11 20 ug/mL
Recorded metric: FACS GeoMean-neg

1) Ab7 (antibody, V domains shown, murine monoclonal, isotype G1; also called murine Ab7) VH: QVQLQQPGAELVMPGTSVKLSCKASGYTFTSYWIHWVKQRPGQGLEWIGEIDPSDSYTNYNQKFKGKATLTVDRSSSTAYMQLSSLTSEDSAVYYCGRSFFTNWFAYWGQGTLVTVSA VL: DVVMTQTPLSLPVSLGDQASISCRSSQSLVHSNGNTYLHWYLQKPGQSPKLLIYKVSNRFSGVPDRFSGSGSGTDFTLKINRVEAEDLGVYFCSQSTHVPFTFGSGTKLEIK | 82
2) Ab12 (antibody, V domains shown, murine monoclonal, isotype G2a; reported as PRLR agonist; also called murine Ab12) VH: DVQLQESGPGLVKPSQSLSLTCTVTGYSITSDYAWNWIRQFPGNKLEWMGYIGYSGRTSFNPSLKSRISITRDTSKNQFFLQLNSVTTEDTATYYCARGGFAMDYWGQGTSVTVSS VL: QIVLTQSPGIMSASPGEKVTMTCSASSSVTYMYWYQQKPRSSPKPWIYLTSNLASGVPARFSGSGSGTSYSLTISSMEAEDGATYYCQQWSSTPPLTFGGGTKLELN | 17
3) LFA102 (antibody, human IgG1, kappa, V domains shown, humanized IgG1 kappa comparator (WO 2008022295)) VH: EVQLVESGGGLVQPGGSLRLSCAVSGFTFSSYGMSWVRQAPGKRLEWVATVSSGGTYTYYPDSVKGRFTISRDNSKNTLYLQMNSLRAEDTAMYYCARHRGNYYATYYYAMDYWGQGTLVTVSS VL: DIVLTQSPDSLAVSLGERATINCKASKSVSTSGYTYMHWYQQKPGQPPKLLIYLASNRESGVPDRFSGSGSGTDFTLTISPVQAEDVATYYCQHSGELPPSFGQGTKLEIKR | 98
4) Ab5 (antibody, V domains shown, murine monoclonal, isotype G2a; also called murine Ab5) VH: QVQLQQPGAELVRPGTSVKLSCKASGYTFTSFWMHWVKQRPGQGLEWIGVIDPSDTYTNYNQKFKGKATLTVDTSSSTAYMQLSSLTSEDSAVYYCARGDYSNWFTYWGQGTLVTVSA VL: DVVMTQTPLSLPVSLGDQASISCRSSQRLVHSNGNTYLHWYLQKPGQSPKLLIYKVSNRFSGVPDRFSGSGSGTDFTLKISRVEAEDLGVYFCSQSTHVPWTFGGGTKLEIK | 90
5) Ab10 (antibody, V domains shown, murine monoclonal, isotype G2a; also called murine Ab10) VH: EVQLHQSGPELVKPGASVKISCKASGYTFTDYNMHWMKQSHGKSLEWIGYFYPYNGGTGYNQEFKNKATLTVDISSSTAYMELRRLTSEDSAVYYCARGGWGIYYAMDYWGQGTSVTVSS VL: DIQMTQSPASLSASVGETVTITCRASENIYSYLTWYQQKQGKSPQLLVYNAKTLAEGVPSRFSGSGSGTQFSLKINSLQPEDFGSYHCQHHSVTPLTFGAGTKLELK | 16
6) Ab6 (antibody, V domains shown, murine monoclonal, isotype G1; also called murine Ab6) VH: QVQLQQPGAELVMPGSSVKLSCKASGYTFTTYWMHWVKQRPGQGLEWIGEIDPSDSYSNYNQKFKDKATLTVDKSSSTAYMQLSSLTSEDSAVYYCARNGGLGPAWFSYWGQGTLVTVSA VL: DIVMTQSQKFMSTTVGDRVSITCKASQYVGTAVAWYQQKPGQSPKLLIYSASNRYTGVPDRFTDSGSGTDFTLTISNLQSEDLADYFCQQYSSYPWTFGGGTKLEIK | 0
